- SYSTEM UNDER TEST: factor IXa (Homo sapiens)
- Construct: intrinsic tryptophan fluorescence of factor IXa
- Sequence (P00740 47-191 limits assumed): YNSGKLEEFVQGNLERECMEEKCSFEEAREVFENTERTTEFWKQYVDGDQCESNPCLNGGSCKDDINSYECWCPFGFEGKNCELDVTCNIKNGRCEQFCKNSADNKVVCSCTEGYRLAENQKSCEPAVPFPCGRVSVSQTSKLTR
- Sequence (P00740 227-461 limits assumed): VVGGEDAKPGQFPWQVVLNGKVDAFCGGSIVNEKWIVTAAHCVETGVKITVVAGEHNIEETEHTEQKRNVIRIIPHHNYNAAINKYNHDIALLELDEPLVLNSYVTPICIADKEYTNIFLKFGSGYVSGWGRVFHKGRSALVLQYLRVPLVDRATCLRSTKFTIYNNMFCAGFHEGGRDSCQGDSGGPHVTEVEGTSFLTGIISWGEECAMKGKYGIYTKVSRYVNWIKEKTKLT
- ASSAY NAME: Amidolytic activity of factor IXa with increasing C6PS
- Format: biochemical
- EXPERIMENTAL CONDITIONS: 300 nM factor IXa, substrate Leu-PHG-Arg-pNA-AcOH; read-out: Kd from amidolytic activity of factor IXa
REPORTED ENDPOINT: Kd (µM)
Only the number, expressed in µM, is required.

Query string: Read the entry `CCCCCC(=O)OC[C@H](COP(=O)(O)OC[C@H](N)C(=O)O)OC(=O)CCCCC` and write its reported Kd.
Result string: 130
